# TEST_SUMMARY: S16 Schwann cell PMP22 intronic element beta-lactamase assay (AID 624044); further: nearly all actives have a fitted effect of over 15% in size
# EXPERIMENTAL_PARAMETERS: S16 rat Schwann cells, PMP22 element beta-lactamase FRET, 24 h; series mostly up to 17.1 µM
Results filed as inconclusive are left out. Activity calls are given as the source filed them. The call rests on the fitted dose curve.
API: response.call in active, inactive

Q) Outcome logged for `O=C(NC[C@@H](O)CO)c1c(I)c(C(=O)NC[C@@H](O)CO)c(I)c(N(CCO)C(=O)CO)c1I` in this assay:
A) inactive

Q) Check the results log: what was the call for COc1ccc2cc(C(C)CO)ccc2c1 (stereo not drawn) ?
A) inactive

Q) Please indicate how the test categorized `C[C@@H](C(=O)O)c1ccc(C(=O)c2ccccc2)s1` .
A) inactive

Q) Kindly provide the recorded test outcome for the following compound: `CC(=O)OCC(=O)[C@@]1(O)CC[C@@H]2[C@H]3CCC4=CC(=O)C=C[C@]4(C)[C@]3(F)[C@@H](O)C[C@@]21C`
A) inactive

Q) What did the test return for `O=C(Nc1ccccc1)OC[C@H](CN1CCCCC1)OC(=O)Nc1ccccc1` ?
A) inactive

Q) Field: outcome | Entry: `CC(C)(C)NC[C@H](O)COc1cccc2c1C[C@@H](O)[C@@H](O)C2`
A) inactive

Q) I would be grateful if you could indicate the recorded call for NC(CCC(=O)N[C@@H](CS)C(=O)NCC(=O)O)C(=O)O (stereo partly drawn) .
A) inactive

Q) Could you check what this test reported for `COc1cc2nc(N3CCN(C(=O)[C@@H]4CCCO4)CC3)nc(N)c2cc1OC` ?
A) inactive

Q) # fetch the recorded call for CCC(C)C(=O)OC1CC(O)C=C2C=CC(C)C(CCC(O)CC(O)CC(=O)O)C21 (stereo not drawn) here
A) inactive

Q) Record request — test call for `COC(=O)[C@@H]1[C@@H]2C[C@H]3c4[nH]c5cc(OC)ccc5c4CCN3C[C@@H]2C[C@H](OC(=O)/C=C\c2cc(OC)c(OC)c(OC)c2)[C@H]1OC`
A) inactive

Q) Hey, what did the test say about `COc1ccc2c(c1)N(C[C@@H](C)CN(C)C)c1ccccc1S2` ?
A) inactive

Q) How did this test come out for `CC[C@H](Cc1c(I)cc(I)c(N)c1I)C(=O)O` ?
A) inactive

Q) Hi team, can someone confirm the assay call for `CN1C(=O)C[C@H](c2ccccc2)C1=O` ?
A) inactive

Q) Hi, do you know how `C[C@H](Oc1ccccc1)C(=O)N[C@@H]1C(=O)N2[C@@H]1SC(C)(C)[C@@H]2C(=O)O` came out in this test?
A) inactive

Q) Please state the recorded outcome for this compound: `Clc1ccc([C@H](Cn2ccnc2)OCc2c(Cl)cccc2Cl)c(Cl)c1`
A) inactive

Q) # fetch the recorded call for CC(=O)OC1CCC2C3CCc4cc(O)ccc4C3CCC12C (stereo not drawn) here
A) inactive

Q) Recorded call for `COc1c(O[C@H]2O[C@@H](CO)[C@@H](O)[C@@H](O)[C@@H]2O)cc2c(c1OC)-c1ccc(SC)c(=O)cc1[C@H](NC(C)=O)CC2` ?
A) inactive

Q) Tell me the assay call for COc1ccc(CC(N)C(=O)NC2C(CO)OC(n3cnc4c(N(C)C)ncnc43)C2O)cc1 (stereo not drawn) please.
A) active

====

# System: CP335
# TEST_SUMMARY: qHTS profiling for inhibitors of Plasmodium falciparum proliferation (AID 504749); further: nearly all actives have a fitted effect of over 60% in size
# EXPERIMENTAL_PARAMETERS: P. falciparum in erythrocytes, SYBR Green DNA, 72 h; series mostly up to 12.8 µM
# Description: NIH National Institute of Allergy and Infectious Diseases [NIAID] NIH Chemical Genomics Center [NCGC] […] Because mature erythrocytes lack DNA, only Plasmodium-derived DNA is detected. NCGC Assay Protocol Summary: The SYBR Green viability assay was adapted from a method described previously (Plouffe et al., 2008). […] The following morning, fluorescence intensity at 485(14) nm excitation and 535(25) nm emission wavelengths was measured on an EnVision (Perkin Elmer) plate reader. […]
Inconclusive results are not listed. Active and inactive are the calls of the source. The call rests on the fitted dose curve; in most records, active means well fitted inhibition curve with a large enough effect; inconclusive means small, poorly fitted or top-dose-only effect; inactive means flat fitted curve, though single readings scatter.
Outcome field: choose from class 1 = active, class 0 = inactive

Q) For `O=C(N/N=C\c1ccc([N+](=O)[O-])o1)c1ccc(O)cc1` , what call appears in the results of this test?
A) class 1

Q) Recorded call for `CC(=O)OCC(=O)[C@@]1(O)CC[C@@H]2[C@H]3CCC4=CC(=O)C=C[C@]4(C)[C@]3(F)[C@@H](O)C[C@@]21C` ?
A) class 0

Q) Check the results log: what was the call for `CCO[C@H]1O[C@@H]([C@H](COCc2ccccc2)OCc2ccccc2)[C@@H](OCc2ccccc2)[C@H]1O` ?
A) class 0

Q) Answer briefly: the call reported for C[C@]12CCC(=O)C=C1CCC1C2C(=O)C[C@]2(C)C1CC[C@]2(O)C(=O)CO (some centres undefined) in this assay.
A) class 0

Q) Could you check what this test reported for `CC1(C)O[C@@H]2C[C@H]3[C@H]4C[C@H](F)C5=CC(=O)CC[C@]5(C)[C@@H]4[C@H](O)C[C@]3(C)[C@]2(C(=O)CO)O1` ?
A) class 0

Q) Fill in: this test's call for CCC1OC(=O)CC(O)C(C)[C@@H](O[C@@H]2OC(C)[C@H](O[C@@H]3C[C@@](C)(O)C(O)C(C)O3)C(N(C)C)C2O)[C@H](CC=O)CC(C)C(=O)/C=C/C(C)=C/[C@@H]1COC1OC(C)C(O)C(OC)[C@@H]1OC (some centres undefined) is ___
A) class 1

Q) Assay result, entry `O=C(O)COCCN1CCN([C@@H](c2ccccc2)c2ccc(Cl)cc2)CC1` — outcome?
A) class 0

Q) Hi team, can someone confirm the assay call for `CCc1c(C)[nH]c2c1C(=O)[C@H](CN1CCOCC1)CC2` ?
A) class 0

Q) I'd appreciate the recorded outcome for CCC(CCC(C)C1CCC2C3CC=C4CC(O)CC[C@@]4(C)C3CC[C@@]12C)C(C)C (some centres undefined) from this test.
A) class 0

====

# Test system: W2
# TEST_SUMMARY: qHTS profiling for inhibitors of Plasmodium falciparum proliferation (AID 504749); further: nearly all actives have a fitted effect of over 60% in size; further: potency means the concentration at half of the fitted maximal effect
# EXPERIMENTAL_PARAMETERS: P. falciparum in erythrocytes, SYBR Green DNA, 72 h; series mostly up to 12.8 µM
Results filed as inconclusive are left out. Activity calls are given as the source filed them. The call rests on the fitted dose curve; in most records, active means well fitted inhibition curve with a large enough effect; inconclusive means small, poorly fitted or top-dose-only effect; inactive means flat fitted curve, though single readings scatter.
MEASURED_ATTRIBUTE: Potency

C#C[C@]1(O)CC[C@@H]2[C@H]3CCC4=CCCC[C@@H]4[C@@H]3CC[C@@]21C	inactive
O=C1OC(CO)C(O)C(O)C1O (stereo not given)	inactive
COc1ccccc1OC[C@H](O)CO	inactive
COc1ccc(C[C@@](C)(N)C(=O)O)cc1OC	inactive
CC(=O)O[C@H]1C[C@@]2(C)[C@H](C[C@@H](O)[C@H]3[C@@]4(C)CC[C@@H](O)[C@@H](C)[C@H]4CC[C@@]32C)C1=C(CCC=C(C)C)C(=O)O	inactive
CCCCCCCCCc1ccc(OCCOCCOCCOCCOCCOCCOCCOCCOCCO)cc1	15.1 µM (active)
CC(=O)C[C@H](c1ccc([N+](=O)[O-])cc1)c1c(O)c2ccccc2oc1=O	inactive
O=C(O)[C@@H]1CCCN1	inactive

Let's switch to this molecule now.
Q) Quick one: Potency for COc1ccc(CC(N)C(=O)NC2C(CO)OC(n3cnc4c(N(C)C)ncnc43)C2O)cc1 (stereo not given) ?
A) 0.338 µM (active)

====

# System: CP291
# TEST_SUMMARY: qHTS profiling for inhibitors of Plasmodium falciparum proliferation (AID 504749); further: nearly all actives have a fitted effect of over 60% in size
# EXPERIMENTAL_PARAMETERS: P. falciparum in erythrocytes, SYBR Green DNA, 72 h; series mostly up to 12.8 µM
Results filed as inconclusive are left out. The source made the active and inactive calls. The call rests on the fitted dose curve; in most records, active means well fitted inhibition curve with a large enough effect; inconclusive means small, poorly fitted or top-dose-only effect; inactive means flat fitted curve, though single readings scatter.
Response enum: true (1) for active, false (0) for inactive

Q) Test call for this compound, please: CCC(C)C(=O)OC1CC(O)C=C2C=CC(C)C(CCC(O)CC(O)CC(=O)O)C21 (stereo not drawn)
A) false (0)

Q) Outcome logged for COC1OC(CO)C(OC2OC(C(=O)O)C(OC3OC(COS(=O)(=O)O)C(OC4OC(C(=O)O)C(OC5OC(CO)C(OC6OC(C(=O)O)C(OC7OC(COS(=O)(=O)O)C(OC8OC(C(=O)O)=C[C@H](O)C8OS(=O)(=O)O)C(O)C7NC(C)=O)[C@@H](O)C6O)C(O)C5NC(C)=O)[C@@H](O)C4O)C(O)C3NC(C)=O)[C@@H](O)C2O)C(O)C1NC(C)=O (stereo partly drawn) in this assay:
A) false (0)

Q) Test call, this compound: `CC(C)(C)NC[C@@H](O)COc1ccccc1C1CCCC1`
A) true (1)

Q) What did this assay record as the result for CNC1C(OC2C(O[C@@H]3C(O)C(O)[C@@H](N=C(N)N)C(O)C3N=C(N)N)OC(C)[C@@]2(O)CO)OC(CO)C(O)C1O (stereo partly drawn) ?
A) false (0)

Q) How did this test come out for COC1C=CO[C@@]2(C)Oc3c(C)c(O)c4c(O)c(c5c(nc6cc(C)ccn65)c4c3C2=O)NC(=O)/C(C)=C\C=CC(C)C(O)[C@@H](C)C(O)C(C)[C@@H](OC(C)=O)C1C (stereo partly drawn) ?
A) true (1)

Q) # lookup: test call for `CC(=O)OCC(=O)[C@@]1(O)[C@H](C)C[C@@H]2[C@H]3CCC4=CC(=O)C=C[C@]4(C)[C@]3(F)[C@@H](O)C[C@@]21C`
A) false (0)

Q) Please indicate how the test categorized `CC[C@](C)(CN(C)C)OC(=O)c1ccccc1` .
A) false (0)

Q) Please let me know the test result on file for CC(C)=CCC[C@](C)(O)C1CC=C(C)CC1 (stereo partly drawn) .
A) false (0)

Q) Could you check what this test reported for `CO[C@]1(NC(=O)[C@H](C(=O)O)c2ccc(O)cc2)C(=O)N2C(C(=O)O)=C(CSc3nnnn3C)CO[C@H]21` ?
A) false (0)

Q) For `CCCCCCCCCc1ccc(OCCOCCOCCOCCOCCOCCOCCOCCOCCO)cc1` , which call appears in the assay record?
A) false (0)

Q) // return assay outcome for CC(=O)O[C@@]1(C(C)=O)CCC2C3CC(C)C4=CC(=O)CC[C@@]4(C)C3CC[C@]21C (stereo partly drawn)
A) false (0)

Q) Call for entry `CC1=C(C(=O)O)N2C(=O)[C@@H](NC(=O)[C@@H](N)c3ccc(O)cc3)[C@@H]2SC1` :
A) false (0)

Q) Hello, I am checking results. What call was entered for `CC(C)(C)NC[C@H](O)COc1cccc2c1CCC(=O)N2` ?
A) false (0)
